# Target: T1, soluble human FcRn (shFcRn) (human, UniProt P55899 24-297; P61769 21-119)
# T1 construct: Biotinylated for the ELISA, amine-coupled to a CM5 chip for SPR; also called biotinylated shFcRn
# T1 sequence (P55899 24-297 limits assumed, chain 1 of 2): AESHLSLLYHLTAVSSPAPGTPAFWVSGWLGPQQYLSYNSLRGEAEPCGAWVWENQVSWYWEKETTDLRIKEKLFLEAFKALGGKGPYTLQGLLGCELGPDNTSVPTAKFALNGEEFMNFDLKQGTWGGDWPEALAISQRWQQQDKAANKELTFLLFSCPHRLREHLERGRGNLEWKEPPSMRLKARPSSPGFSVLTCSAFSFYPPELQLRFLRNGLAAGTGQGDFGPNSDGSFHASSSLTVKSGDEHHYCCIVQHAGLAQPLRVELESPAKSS
# T1 sequence (P61769 21-119 limits assumed, chain 2 of 2): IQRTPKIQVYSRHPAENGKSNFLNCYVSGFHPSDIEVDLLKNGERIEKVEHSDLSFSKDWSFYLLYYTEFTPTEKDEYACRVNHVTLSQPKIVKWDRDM
# Experiment notes: IgG competition ELISA
Bridge positions count the residues as written; N and C are the ends. Square brackets hold non-standard residues; d marks the D form. Ends that are not written are not given here. Pen = CC(C)(S)[C@H](N)C(=O)O; hCys = N[C@@H](CCS)C(=O)O
For each of the binders below, state its pIC50.
// pIC50: -log10(molar conc.)

Record QRF[Pen]TGHFGGLYP[hCys]NGP-NH2 (disulfide 4-14; N-terminus assumed; SMILES CC(C)C[C@@H]1NC(=O)CNC(=O)CNC(=O)[C@H](Cc2ccccc2)NC(=O)[C@H](Cc2c[nH]cn2)NC(=O)CNC(=O)[C@H]([C@@H](C)O)NC(=O)[C@@H](NC(=O)[C@H](Cc2ccccc2)NC(=O)[C@H](CCCNC(=N)N)NC(=O)[C@@H](N)CCC(N)=O)C(C)(C)SSCC[C@@H](C(=O)N[C@@H](CC(N)=O)C(=O)NCC(=O)N2CCC[C@H]2C(N)=O)NC(=O)[C@@H]2CCCN2C(=O)[C@H](Cc2ccc(O)cc2)NC1=O) [Peptide No. 69] . Reported pIC50: 5.70

Record QRFCTGHFGGLYP[Pen]NGP-NH2 (disulfide 4-14; N-terminus assumed; SMILES CC(C)C[C@@H]1NC(=O)CNC(=O)CNC(=O)[C@H](Cc2ccccc2)NC(=O)[C@H](Cc2c[nH]cn2)NC(=O)CNC(=O)[C@H]([C@@H](C)O)NC(=O)[C@@H](NC(=O)[C@H](Cc2ccccc2)NC(=O)[C@H](CCCNC(=N)N)NC(=O)[C@@H](N)CCC(N)=O)CSSC(C)(C)[C@@H](C(=O)N[C@@H](CC(N)=O)C(=O)NCC(=O)N2CCC[C@H]2C(N)=O)NC(=O)[C@@H]2CCCN2C(=O)[C@H](Cc2ccc(O)cc2)NC1=O) [Peptide No. 33] . Reported pIC50: 4.74

Record QRF[hCys]TGHFGGLYP[hCys]NGP-NH2 (disulfide 4-14; N-terminus assumed; SMILES CC(C)C[C@@H]1NC(=O)CNC(=O)CNC(=O)[C@H](Cc2ccccc2)NC(=O)[C@H](Cc2c[nH]cn2)NC(=O)CNC(=O)[C@H]([C@@H](C)O)NC(=O)[C@@H](NC(=O)[C@H](Cc2ccccc2)NC(=O)[C@H](CCCNC(=N)N)NC(=O)[C@@H](N)CCC(N)=O)CCSSCC[C@@H](C(=O)N[C@@H](CC(N)=O)C(=O)NCC(=O)N2CCC[C@H]2C(N)=O)NC(=O)[C@@H]2CCCN2C(=O)[C@H](Cc2ccc(O)cc2)NC1=O) [Peptide No. 28] . Reported pIC50: 4.70

Record QRF[Pen]TGHFG[dP]LYP[Pen]NGP-NH2 (disulfide 4-14; N-terminus assumed; SMILES CC(C)C[C@@H]1NC(=O)[C@H]2CCCN2C(=O)CNC(=O)[C@H](Cc2ccccc2)NC(=O)[C@H](Cc2c[nH]cn2)NC(=O)CNC(=O)[C@H]([C@@H](C)O)NC(=O)[C@@H](NC(=O)[C@H](Cc2ccccc2)NC(=O)[C@H](CCCNC(=N)N)NC(=O)[C@@H](N)CCC(N)=O)C(C)(C)SSC(C)(C)[C@@H](C(=O)N[C@@H](CC(N)=O)C(=O)NCC(=O)N2CCC[C@H]2C(N)=O)NC(=O)[C@@H]2CCCN2C(=O)[C@H](Cc2ccc(O)cc2)NC1=O) [Peptide No. 295] . Reported pIC50: 5.80

Record QRF[Pen]TGHFGGLYP[Pen]NGP-NH2 (disulfide 4-14; N-terminus assumed; SMILES CC(C)C[C@@H]1NC(=O)CNC(=O)CNC(=O)[C@H](Cc2ccccc2)NC(=O)[C@H](Cc2c[nH]cn2)NC(=O)CNC(=O)[C@H]([C@@H](C)O)NC(=O)[C@@H](NC(=O)[C@H](Cc2ccccc2)NC(=O)[C@H](CCCNC(=N)N)NC(=O)[C@@H](N)CCC(N)=O)C(C)(C)SSC(C)(C)[C@@H](C(=O)N[C@@H](CC(N)=O)C(=O)NCC(=O)N2CCC[C@H]2C(N)=O)NC(=O)[C@@H]2CCCN2C(=O)[C@H](Cc2ccc(O)cc2)NC1=O) [Peptide No. 34] . Reported pIC50: 5.70
